Would you kindly list pIC50 for each of these compounds?
pIC50: −log10 of the molar value.

Fill in: SARS-CoV-2 PLpro (Severe acute respiratory syndrome coronavirus 2) pIC50 for CCOC(=O)/C=C/C(=O)NNC(=O)CCc1ccccc1C(=O)N[C@H](C)c1cc(-c2cnn(C)c2)cc(-c2ccn(CC)n2)c1 [Example 9] = > 6.00

Test item C#CCNC(=O)CCc1ccccc1C(=O)N[C@H](C)c1cc(-c2cnn(C)c2)cc(-c2ccn(CC)n2)c1 [Example 2] ; SARS-CoV-2 PLpro (Severe acute respiratory syndrome coronavirus 2); reported pIC50 was 5.30 to 6.00

GET /values?item= CCn1ccc(-c2cc(-c3cnn(C)c3)cc([C@@H](C)NC(=O)c3ccccc3CCC(=O)NNC(=O)CCl)c2)n1 [Example 15] &system= SARS-CoV-2 PLpro (Severe acute respiratory syndrome coronavirus 2) returns pIC50: > 6.00

Hey, SARS-CoV-2 PLpro (Severe acute respiratory syndrome coronavirus 2) data for C=CC(=O)NCC(=O)NCc1ccccc1C(=O)N[C@H](C)c1cc(-c2cnn(C)c2)cc(-c2ccn(C)n2)c1 [Example 29] : pIC50 came out at < 5.30

Short answer on SARS-CoV-2 PLpro (Severe acute respiratory syndrome coronavirus 2) for CCn1ccc(-c2cc(-c3cnn(C)c3)cc([C@@H](C)NC(=O)c3ccccc3CCC(=O)NNC(=O)/C=C/C(=O)OC(C)(C)C)c2)n1 [Example 7] , pIC50: > 6.00

// compound CCn1ccc(-c2cc(-c3cnn(C)c3)cc(C3(NC(=O)c4ccccc4CNC(=O)CNC(=O)/C=C/C(=O)N4CC(F)(F)C4)CC3)c2)n1 [Example 24] , assay SARS-CoV-2 PLpro (Severe acute respiratory syndrome coronavirus 2), pIC50 value: 5.30 to 6.00

# CCn1ccc(-c2cc(-c3cnn(C)c3)cc([C@@H](C)NC(=O)c3ccccc3CCC(=O)NNS(=O)(=O)CCl)c2)n1 [Example 10] with SARS-CoV-2 PLpro (Severe acute respiratory syndrome coronavirus 2): pIC50 is < 5.30

For the compound CCn1ccc(-c2cc(-c3cnn(C)c3)cc([C@@H](C)NC(=O)c3ccccc3CCC(=O)NNC(=O)/C=C/CN(C)C)c2)n1 [Example 5] , the measured pIC50 on SARS-CoV-2 PLpro (Severe acute respiratory syndrome coronavirus 2) was < 5.30

Let me check: CCn1ccc(-c2cc(-c3cnn(C)c3)cc([C@@H](C)NC(=O)c3ccccc3CCC(=O)NNC(=O)C34CC(C3)C4)c2)n1 [Example 27] , system SARS-CoV-2 PLpro (Severe acute respiratory syndrome coronavirus 2), measured pIC50 is < 5.30

Response field pIC50 (SARS-CoV-2 PLpro (Severe acute respiratory syndrome coronavirus 2)) for item CCn1ccc(-c2cc(-c3cnn(C)c3)cc([C@@H](C)NC(=O)c3ccccc3CCC(=O)NNC(=O)/C=C/C(=O)N3CC(C(F)(F)F)C3)c2)n1 [Example 18] : > 6.00

// returns pIC50 for CCOC(=O)/C=C/C(=O)NCC(=O)NCc1ccccc1C(=O)NC1(c2cc(-c3cnn(C)c3)cc(-c3ccn(CC)n3)c2)CC1 [Example 23] with SARS-CoV-2 PLpro (Severe acute respiratory syndrome coronavirus 2); value = 5.30 to 6.00

Item CCn1ccc(-c2cc(-c3cnn(C)c3)cc([C@@H](C)NC(=O)c3ccccc3CCC(=O)NCC(=O)CF)c2)n1 [Example 28] ; assay system SARS-CoV-2 PLpro (Severe acute respiratory syndrome coronavirus 2); pIC50 reported as < 5.30

Log: SARS-CoV-2 PLpro (Severe acute respiratory syndrome coronavirus 2), compound C[C@@H](NC(=O)c1ccccc1CNC(=O)CNC(=O)CC#N)c1cc(-c2cnn(C)c2)cc(-c2ccn(C)n2)c1 [Example 31] , pIC50 = < 5.30
